biological target: human IgE pre-bound on human basophils (human) (UniProt P01854); assay: cell-based or functional assay
Sequence (P01854 whole entry, chain 1 of 2): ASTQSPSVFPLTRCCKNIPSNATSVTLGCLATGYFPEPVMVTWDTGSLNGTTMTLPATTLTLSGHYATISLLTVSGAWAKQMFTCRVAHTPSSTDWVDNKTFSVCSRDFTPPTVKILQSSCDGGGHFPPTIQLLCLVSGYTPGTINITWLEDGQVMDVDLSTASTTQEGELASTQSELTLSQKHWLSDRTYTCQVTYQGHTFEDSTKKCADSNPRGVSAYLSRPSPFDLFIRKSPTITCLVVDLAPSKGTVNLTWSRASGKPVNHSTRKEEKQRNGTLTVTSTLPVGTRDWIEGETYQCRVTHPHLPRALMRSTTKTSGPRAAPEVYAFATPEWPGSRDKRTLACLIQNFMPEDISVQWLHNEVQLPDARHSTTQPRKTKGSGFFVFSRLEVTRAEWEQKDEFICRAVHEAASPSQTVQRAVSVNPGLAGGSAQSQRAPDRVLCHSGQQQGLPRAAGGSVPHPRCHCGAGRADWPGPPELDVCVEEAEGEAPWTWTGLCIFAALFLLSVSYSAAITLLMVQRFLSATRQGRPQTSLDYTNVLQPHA
Sequence (P12319 26-257, chain 2 of 2, further chain): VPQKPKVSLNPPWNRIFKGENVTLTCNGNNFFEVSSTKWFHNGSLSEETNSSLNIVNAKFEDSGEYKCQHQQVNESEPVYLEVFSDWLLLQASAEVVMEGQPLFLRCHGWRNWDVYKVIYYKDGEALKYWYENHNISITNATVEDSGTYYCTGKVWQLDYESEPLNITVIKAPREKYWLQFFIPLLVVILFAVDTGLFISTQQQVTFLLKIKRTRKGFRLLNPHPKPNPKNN
PROPERTY_LABEL: % CD63+ basophils at 20 µg/mL (%)
Report only the number, with the unit % understood.

Return reported % CD63+ basophils at 20 µg/mL; argument: 18E2VHHis-ABDEG (antibody, V domains shown) VH: QLQLVESGGGLVQPGGSLRLSCAASGFTFSSYVMHWVRQAPGKGLEWVSSIYHDGSHTYYADFVKGRFTISRDNAKNTLYLQMNSLKSEDTAVYYCASGTSYSGSYYYTDPFFGSWGQGTQVTVSS VL: NFMLTQPSALSVTLGQTARITCQGDRLGSRYIYWYQQKPPQAPVLVIHDDDRRPSGIPERFSGSSSGGTATLTISGAQAEDDGDYYCQSADSSGNPVFGGGTHLTVL
3.5

Return reported % CD63+ basophils at 20 µg/mL; argument: 18E2His2-hIgG1-ABDEG (antibody, V domains shown) VH: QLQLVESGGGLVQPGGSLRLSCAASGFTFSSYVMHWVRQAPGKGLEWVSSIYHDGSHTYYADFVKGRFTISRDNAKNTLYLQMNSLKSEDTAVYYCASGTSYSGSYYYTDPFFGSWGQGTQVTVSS VL: NFMLTQPSALSVTLGQTARITCQGDRLGSRYIHWYQQKPPQAPVLVIHDDDRRPSGIPERFSGSSSGGTATLTISGAQAEDDGDYYCQSADSSGNPVFGGGTHLTVL
4
